Tested on: U87MG (glioblastoma) cells
Experiment: Oncolytic activity (Hill and IC50) of free Dasatinib and Dasatinib-HPβCD complexes, U87MG
Format: cell-based
Conditions: Homo sapiens, U-87 MG
pIC50: −log10 of the molar value.
OBSERVATION_TYPE: pIC50

>>> value_observed("Cc1nc(Nc2ncc(C(=O)Nc3c(C)cccc3Cl)s2)cc(N2CCN(CCO)CC2)n1 [Dasatinib]")
4.80

* * *

Test system: Hep3B (hepatocellular carcinoma) cell line
Test: MTT of free Dasatinib and Dasatinib-HPβCD complexes, Hep3B
Type: cell-based
Details: Homo sapiens, 95% CI printed in cell
pIC50: −log10 of the molar value.
OBSERVATION_TYPE: pIC50

>>> value_observed("Cc1nc(Nc2ncc(C(=O)Nc3c(C)cccc3Cl)s2)cc(N2CCN(CCO)CC2)n1 [Dasatinib]")
4.82

Reference for the values: patent US20260151423A1
